Test system: Mycobacterium tuberculosis variant bovis BCG
ASSAY_PROTOCOL: microbe, parasite or virus in culture
Type: functional

MOLECULE | SYSTEM | MIC90
CC(C)(C)C(=O)CC1(O)Oc2ccccc2N=C1C=C(O)C(C)(C)C (centres undefined) | Mycobacterium tuberculosis variant bovis BCG | 5.3 µM
O=C(OCc1c(F)cccc1Cl)c1ccc(-n2ncc(Cl)c(Cl)c2=O)cc1 | Mycobacterium tuberculosis variant bovis BCG | 3.7 µM
NC(=O)c1cnc2ccc(S(=O)(=O)c3ccccc3)cc2c1Nc1ccc(O)cc1 | Mycobacterium tuberculosis variant bovis BCG | 2.9 µM
O=C(NCc1ccccc1)N1CCN(Cc2ccc3c(c2)OCO3)CC1 | Mycobacterium tuberculosis variant bovis BCG | 4.9 µM
Cc1ccc(-c2nnc(NC(=O)c3cccc(F)c3)o2)cc1C | Mycobacterium tuberculosis variant bovis BCG | 5 µM
CCCCOc1ccc(NC(=O)C2CCCCC2)cc1 | Mycobacterium tuberculosis variant bovis BCG | 8.1 µM
CNC(=O)c1cc(Nc2ncc(F)c(N(C)c3ccc4c(C)[nH]nc4c3)n2)ccc1OCC1CCNCC1 | Mycobacterium tuberculosis variant bovis BCG | 8.8 µM
O=C(Nc1nc(-c2ccccn2)cs1)c1ccc(-n2cccn2)cc1 | Mycobacterium tuberculosis variant bovis BCG | 0.7 µM
O=C(NC12CC3CC(CC(C3)C1)C2)c1cc2cc(Cl)ccc2[nH]1 | Mycobacterium tuberculosis variant bovis BCG | 0.8 µM
CCOc1ccc(-c2nc(CNCCc3ccc(F)cc3)cs2)cc1.O=C(O)C(=O)O | Mycobacterium tuberculosis variant bovis BCG | 9.9 µM
O=C(C1CCN(c2nnc(-n3cccc3)s2)CC1)N1CCC(Cc2ccccc2)CC1 | Mycobacterium tuberculosis variant bovis BCG | 3.4 µM
CCOc1cc(OC)c(C(=O)Nc2cccc3c2CCN(C)C3C)cc1Cl (centres undefined) | Mycobacterium tuberculosis variant bovis BCG | 5.6 µM
O=C(Nc1nnc(-c2ccc(Br)cc2)o1)c1cccc(F)c1 | Mycobacterium tuberculosis variant bovis BCG | 2.2 µM
O=C(Nc1cccc(Cl)c1)NC12CC3CC(CC(C3)C1)C2 | Mycobacterium tuberculosis variant bovis BCG | 6.3 µM
Cc1ccc(OCC(=O)Nc2ccc(C(=O)c3c(C)nc4sccn34)cc2)c(C)c1 | Mycobacterium tuberculosis variant bovis BCG | 3.9 µM
CN1CCN(c2ccc(C(F)(F)F)cc2NC(=O)c2ccccn2)CC1 | Mycobacterium tuberculosis variant bovis BCG | 7.2 µM
COCCN(C)Cc1ccc(-c2cc(-c3c[nH]nc3-c3cccc(C)n3)ccn2)cc1 | Mycobacterium tuberculosis variant bovis BCG | 6 µM
Cl.Cl.O=C(Nc1ccc(NC2=NCCN2)cc1)c1ccc(C(=O)Nc2ccc(NC3=NCCN3)cc2)cc1 | Mycobacterium tuberculosis variant bovis BCG | 0.4 µM
Cc1ncc(C(=O)Nc2cccc(-c3cc(-c4c(Cl)cccc4Cl)no3)c2)c(-c2ccccc2)n1 | Mycobacterium tuberculosis variant bovis BCG | 1.2 µM
CCCc1cc(N2CCN(CC#N)CC2)n2ncc(-c3ccccc3)c2n1 | Mycobacterium tuberculosis variant bovis BCG | 5.1 µM
c1ccc2c(Cc3nnc(Sc4ccnc(N5CCN(c6ccncc6)CC5)n4)n3CCN3CCOCC3)c[nH]c2c1 | Mycobacterium tuberculosis variant bovis BCG | 2.8 µM
CC1=C(C(=O)Nc2ccc3[nH]ncc3c2)C(c2cc(C#Cc3ccccc3)cs2)NC(=O)N1 (centres undefined) | Mycobacterium tuberculosis variant bovis BCG | 2 µM
Cc1cc(N2CCCN(C)CC2)nc(Nc2cc(F)cc(F)c2)n1 | Mycobacterium tuberculosis variant bovis BCG | 3.4 µM
O=C(Nc1nc(CN2CCCCC2)cs1)c1ccccc1OCc1ccc(F)cc1 | Mycobacterium tuberculosis variant bovis BCG | 6.2 µM
CC(=O)Nc1ccc(S(=O)(=O)Nc2ccccc2Nc2ccc(C)cc2)cc1 | Mycobacterium tuberculosis variant bovis BCG | 1.9 µM
O=C(NC(Cc1ccccc1)C(=O)Nc1ccccc1N1CCOCC1)c1cccs1 (centres undefined) | Mycobacterium tuberculosis variant bovis BCG | 1.8 µM
O=C(COc1ccc(-c2ccccc2)cc1)NNC(=O)c1ccco1 | Mycobacterium tuberculosis variant bovis BCG | 2.5 µM
c1ccc2nc(CN3CCC4(CC3)OCCc3sccc34)ccc2c1 | Mycobacterium tuberculosis variant bovis BCG | 9.1 µM
CCc1ccc(Nc2nnc(SCc3cc(C)on3)s2)cc1 | Mycobacterium tuberculosis variant bovis BCG | 7.4 µM
Oc1ccc(Nc2ccccc2Nc2ccccc2)cc1Cl | Mycobacterium tuberculosis variant bovis BCG | 7.7 µM
Cc1cc(C)c2cc(C#N)c(N3CCCNCC3)nc2c1 | Mycobacterium tuberculosis variant bovis BCG | 4.3 µM
CCCCOc1ccc(C(=O)Nc2nc(-c3ccccn3)cs2)cc1 | Mycobacterium tuberculosis variant bovis BCG | 1.6 µM
N=c1n(CCC2CCCCC2)nnn1Cc1ccccc1 | Mycobacterium tuberculosis variant bovis BCG | 6.1 µM
O=C(Nc1nc(-c2ccccn2)cs1)c1ccco1 | Mycobacterium tuberculosis variant bovis BCG | 4.5 µM
Cc1ccc(Nc2cc(C)nn2-c2nc(C)cc(O)n2)cc1 | Mycobacterium tuberculosis variant bovis BCG | 0.5 µM
Br.Cc1cc(C)cc(OCCCON2C(=N)N=C(N)NC2(C)C)c1 | Mycobacterium tuberculosis variant bovis BCG | 7 µM
c1csc(Cc2nn3c(-c4n[nH]c5c4CCC5)nnc3s2)c1 | Mycobacterium tuberculosis variant bovis BCG | 3.2 µM
Cc1nnc(NCc2cccc(Cl)c2)c2ccccc12 | Mycobacterium tuberculosis variant bovis BCG | 1.5 µM
COc1cc(CN2CCC3(C=Cc4ccccc43)CC2)cc2c1OCO2 | Mycobacterium tuberculosis variant bovis BCG | 3.1 µM
FC(F)(F)c1ccccc1C1CCN(Cc2[nH]nc3ccccc23)CC1 | Mycobacterium tuberculosis variant bovis BCG | 6.3 µM
O=C(NCc1ccccc1F)N1CCN(Cc2ccc(Br)s2)CC1 | Mycobacterium tuberculosis variant bovis BCG | 9.4 µM
CCCc1cc(-c2nc(-c3ccc(OC)c(OC)c3)cs2)ccn1 | Mycobacterium tuberculosis variant bovis BCG | 6.7 µM
Clc1ccc(OCc2noc(CC3CCN(CCOCc4ccccc4)C3)n2)cc1 (centres undefined) | Mycobacterium tuberculosis variant bovis BCG | 6 µM
O=C(/C=C/c1ccccc1)N1CCN(Cc2cccc(OCc3ccccc3)c2)CC1 | Mycobacterium tuberculosis variant bovis BCG | 8.3 µM

----------
Test system: Mycobacterium tuberculosis variant bovis BCG
ASSAY_PROTOCOL: microbe, parasite or virus in culture
Type: functional

STRUCTURE | UNIT_NAME | MIC90
COc1ccc(-c2ccc(Nc3cccc(S(=O)(=O)CCNCc4nccn4C)c3)nc2)cn1 | µM | 4.3
COc1ccc(-c2ccc(Nc3cccc(S(=O)(=O)CCN(C)Cc4cccs4)c3)nc2)cn1 | µM | 7.9
CCOc1ccc(CC(=O)Nc2cc(C)nn2-c2nc(C)c(CC)c(=O)[nH]2)cc1 | µM | 3.3
CCOc1ccc(C=C(C(=O)NCc2ccc(F)cc2)c2nc3ccccc3[nH]2)cc1 | µM | 6.1
O=C(CSc1nnc(Nc2ccccc2)s1)NNC(=O)c1cccs1 | µM | 8.2

----------
Tested on: Mycobacterium tuberculosis variant bovis BCG
ASSAY_PROTOCOL: microbe, parasite or virus in culture
Assay type: functional
Binary call on MIC90 with cut-off 4 µM: strictly below means Met, and equality or higher means Not met.

STRUCTURE | QUALITATIVE_LABEL
CN1CCC(COC(=O)c2cn(C)c3ccc(Cl)cc23)CC1 | Not met
O=C(Nc1nc(-c2ccccn2)cs1)c1cc2c(s1)CCCC2 | Not met
Cc1ccc(-n2nc(C)c3c(N4CCCNCC4)nc(C4CC4)nc32)cc1 | Met
Cc1nc2ccccn2c1C(=O)NCc1ccc2c(c1)OCO2 | Met
CCCc1ccc(NC(=O)c2ccc(CN3CCN(Cc4ccsc4)CC3)cc2)cc1 | Not met

----------
# MIC90 per record follows
System: Mycobacterium tuberculosis variant bovis BCG
ASSAY_PROTOCOL: microbe, parasite or virus in culture
Type: functional
RESULT_TYPE: MIC90 (µM)

STRUCTURE | RESULT_TYPE | UNIT_NAME | READING
COc1ccc(S(=O)(=O)Nc2ccc(Nc3ccccc3)cc2OC)cc1 | MIC90 | µM | 3
Cc1cc(C)c2cc(CN(Cc3cccnc3)C(=O)c3ccccc3F)c(Cl)nc2c1 | MIC90 | µM | 1.7
CC1CCN(Cc2c(O)ccc3oc(-c4ccco4)cc(=O)c23)CC1 | MIC90 | µM | 2.6
COc1ccc(CCNC(=O)c2cc(-c3ccc(OC)c(OC)c3)on2)cc1OC | MIC90 | µM | 4.2
COc1cc(OC)cc(C(=O)Nc2nc(-c3ccccn3)cs2)c1 | MIC90 | µM | 3.4

----------
# MIC90 per record follows
Test system: Mycobacterium tuberculosis variant bovis BCG
ASSAY_PROTOCOL: microbe, parasite or virus in culture
Type: functional
RESULT_TYPE: MIC90

MOLECULE | READING
CCSc1cccc(C(=O)Nc2nnc(-c3ccc(C)cc3C)o2)c1 | 5.2 µM
Cc1ccc(C2CC(C(F)(F)F)n3ncc(C(=O)NCc4ccc5c(c4)OCO5)c3N2)cc1 (stereo not given) | 1.9 µM
CC(C)n1cc(CN2CCCC(C(=O)c3ccc(-c4ccccc4)cc3)C2)cn1 (stereo not given) | 8.9 µM
COc1ccc(C2CC(=O)N(Cc3cccc(F)c3)c3ccccc3S2)cc1OC (stereo not given) | 5.9 µM
Cc1cc(C)n(-c2nc3ccccc3c(=O)[nH]2)n1 | 3.3 µM
c1ccc(-c2nnc(Sc3ccnc(N4CCN(c5ccncc5)CC4)n3)n2CCCN2CCOCC2)nc1 | 4.6 µM
CCc1ccc(S(=O)(=O)Nc2cc(CN3CCN(CC4CC4)CC3)ccc2C)cc1 | 9.6 µM
Nc1ccccc1NC1CCN(Cc2ccccc2)CC1 | 3.6 µM
CC[C@H]1CN2CC[C@@H]1C[C@H]2[C@H](O)c1cc(-c2cccnc2)nc2ccc(OC)cc12 | 8.3 µM
O=C(CSc1ccccc1)Nc1nc(-c2ccccn2)cs1 | 6.7 µM
